Data origin: patent US20240059799A1

Biological target: T1, recombinant human TL1A (human, UniProt O95150 71-251)
T1 construct: homotrimer; biotinylated for SPR capture; the ELISA paragraphs say only 'recombinant TL1A'; also called TNFSF15
T1 chain: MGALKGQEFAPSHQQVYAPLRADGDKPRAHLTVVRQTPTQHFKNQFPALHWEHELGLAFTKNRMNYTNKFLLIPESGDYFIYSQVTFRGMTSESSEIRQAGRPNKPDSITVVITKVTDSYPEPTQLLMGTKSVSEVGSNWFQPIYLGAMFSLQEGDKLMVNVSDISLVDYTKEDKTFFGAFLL
Experiment: competition ELISA vs bio-TL1A-0002
endpoint-label: IC50 (nM)
Give your result in nM as a bare value.

TL1A-0029 (antibody, IgG1, V domains shown, IgG1/kappa variant of TL1A-0002) VH: QVQLVQSGAEVKKPGASVKVSCKASGYDFTYYGISWVRQAPGQGLEWMGWISTYNGNTHYARMLQGRVTMTTDTSTRTAYMELRSLRSDDTAVYYCARENLYGSGAYRGGMDVWGQGTTVTVSS VL: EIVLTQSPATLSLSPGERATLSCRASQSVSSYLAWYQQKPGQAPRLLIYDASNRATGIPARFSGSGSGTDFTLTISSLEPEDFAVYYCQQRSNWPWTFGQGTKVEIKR    7.8
TL1A-0084 (antibody, IgG1, V domains shown, IgG1/kappa variant of TL1A-0002) VH: QVQLVQSGAEVKKPGASVKVSCKASGYDFTYYGISWVRQAPGQGLEWMGWASTYNGNTHYARMLQGRVTMTTDTSTRTAYMELRSLRSDDTAVYYCARENYYGSGAYRGGMDVWGQGTTVTVSS VL: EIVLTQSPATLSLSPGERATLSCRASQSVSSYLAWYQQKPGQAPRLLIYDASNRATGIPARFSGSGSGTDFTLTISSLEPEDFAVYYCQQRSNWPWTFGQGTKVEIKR    4.5
TL1A-0196 (antibody, IgG1, V domains shown, IgG1/kappa variant of TL1A-0002) VH: QVQLVQSGAEVKKPGASVKVSCKASGYDFTYYGISWVRQAPGQGLEWMGWISTYNGNTHYARMLQGRVTMTTDTSTRTAYMELRSLRSDDTAVYYCARESYYGSGEYRGGMDVWGQGTTVTVSS VL: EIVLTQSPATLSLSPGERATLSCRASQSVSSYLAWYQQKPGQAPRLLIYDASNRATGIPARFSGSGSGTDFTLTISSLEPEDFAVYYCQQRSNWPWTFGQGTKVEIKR    11.9

Per the record, TL1A-0194 (antibody, IgG1, V domains shown, IgG1/kappa variant of TL1A-0002) VH: QVQLVQSGAEVKKPGASVKVSCKASGYDFTYYGISWVRQAPGQGLEWMGWISTYNGNTHYARMLQGRVTMTTDTSTRTAYMELRSLRSDDTAVYYCAREQYYGSGAFRGGMDVWGQGTTVTVSS VL: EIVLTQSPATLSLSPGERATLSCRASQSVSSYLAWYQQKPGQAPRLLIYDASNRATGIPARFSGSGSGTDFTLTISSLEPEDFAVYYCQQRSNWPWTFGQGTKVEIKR has IC50 of 8.3

Per the record, TL1A-0093 (antibody, IgG1, V domains shown, IgG1/kappa variant of TL1A-0002) VH: QVQLVQSGAEVKKPGASVKVSCKASGYDFTYYGISWVRQAPGQGLEWMGWISAYNANTHYAPSLQGRVTMTTDTSTRTAYMELRSLRSDDTAVYYCARENYYGSGAYRGGMDVWGQGTTVTVSS VL: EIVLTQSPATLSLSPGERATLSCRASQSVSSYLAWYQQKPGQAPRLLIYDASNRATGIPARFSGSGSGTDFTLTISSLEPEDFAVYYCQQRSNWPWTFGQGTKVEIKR has IC50 of 5.9
